# ASSAY_SYSTEM: Serine/threonine-protein kinase Sgk1 (Homo sapiens) (UniProt O00141)
# Sequence (O00141 whole entry): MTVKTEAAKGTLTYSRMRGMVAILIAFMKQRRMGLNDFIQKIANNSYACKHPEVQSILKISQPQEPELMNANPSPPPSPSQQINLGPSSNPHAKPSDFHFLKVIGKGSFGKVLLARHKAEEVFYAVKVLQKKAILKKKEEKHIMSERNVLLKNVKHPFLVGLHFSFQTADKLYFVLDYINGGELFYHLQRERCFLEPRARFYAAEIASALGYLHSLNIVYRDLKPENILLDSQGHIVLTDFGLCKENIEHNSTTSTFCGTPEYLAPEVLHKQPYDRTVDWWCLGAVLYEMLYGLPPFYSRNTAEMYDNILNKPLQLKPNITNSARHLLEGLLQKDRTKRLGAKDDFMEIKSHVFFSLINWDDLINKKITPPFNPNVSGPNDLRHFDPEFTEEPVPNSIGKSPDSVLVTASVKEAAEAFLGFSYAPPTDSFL
# CONDITION_DESCRIPTION: at 1 µM
MEASURE: residual activity (%)
Provide only the numeric value, understood in %.

Req: Need residual activity, item CCOc1cc2ncnc(Nc3cccc(Br)c3)c2cc1OCC
Resp: 107

Req: Next compound up: O=C(Nc1cccc(Nc2cc(Nc3cccc(C(F)(F)F)c3)ncn2)c1)C1CC1
Resp: 112

Req: Next compound up: N#CC(C#N)=C(N)/C(C#N)=C/c1ccc(O)cc1
Resp: 95

Req: Next compound up: O=C1NC(=O)c2c1c1c3ccccc3[nH]c1c1[nH]c3cc(Br)ccc3c21
Resp: 44

Req: Next compound up: O=C1c2ccccc2-[n+]2ccc3c([nH]c4ccccc43)c21
Resp: 88

* * *

What residual activity was measured for each of the following?
# ASSAY_SYSTEM: Hepatocyte growth factor receptor (Homo sapiens)
# CONDITION_DESCRIPTION: at 1 µM
Provide only the numeric value, understood in %.

Req: Need residual activity, item CNc1cc2c(Nc3cccc(Br)c3)ncnc2cn1
Resp: 89

Req: Next compound up: O=C1Nc2cc(Br)ccc2/C1=C1/Nc2ccccc2/C1=N\O
Resp: 118

Req: Next compound up: Nc1cccc(-c2cc3c(Oc4cccc(O)c4)ncnc3[nH]2)c1
Resp: 63

Req: Next compound up: Nc1ccc2ncnc(NCCc3ccc(Oc4ccccc4)cc3)c2c1
Resp: 124

* * *

# ASSAY_SYSTEM: Inhibitor of nuclear factor kappa-B kinase subunit beta (Homo sapiens)
# CONDITION_DESCRIPTION: at 10 µM
What residual activity was measured for each of the following?
Provide only the numeric value, understood in %.

Req: Need residual activity, item COc1cc2ncnc(Nc3ccc(NC(=O)c4ccccc4)cc3)c2cc1OC
Resp: 106

Req: Next compound up: O=[N+]([O-])c1ccc(-c2nc(-c3ccc(F)cc3)c(-c3ccncc3)[nH]2)cc1
Resp: 111

Req: Next compound up: Cc1nc(-c2ccccc2)c(-c2ccncc2)o1
Resp: 82

Req: Next compound up: Cn1nc2c3c(cccc31)C(=O)c1ccccc1-2
Resp: 87

Req: Next compound up: CC(=O)O/N=C1\C(=C2\C(=O)Nc3cc(Br)ccc32)Nc2ccccc21
Resp: 93

Req: Next compound up: CC(C)n1cnc2c(NCc3ccccc3)nc(NCCCO)nc21
Resp: 94

Req: Next compound up: O=C(O)c1ccc2c3c1cccc3c(=O)n1c3ccccc3nc21
Resp: 93

Req: Next compound up: Cc1ccc(NC2=CC(=O)c3sc(C)nc3C2=O)cc1
Resp: 98

Req: Next compound up: CC#CC(=O)Nc1cc2c(Nc3ccc(F)c(Cl)c3)ncnc2cn1
Resp: 96

* * *

What residual activity was measured for each of the following?
# ASSAY_SYSTEM: Platelet-derived growth factor receptor alpha (Homo sapiens)
# CONDITION_DESCRIPTION: at 1 µM
Provide only the numeric value, understood in %.

Req: Need residual activity, item NC(=O)c1ccc2[nH]c(-c3ccc(Oc4ccc(Cl)cc4)cc3)nc2c1
Resp: 115

Req: Next molecule up: Nc1cccc(-c2cc3c(Oc4cccc(O)c4)ncnc3[nH]2)c1
Resp: 48

Req: Next molecule up: O=C(Nc1cccc(Nc2cc(Nc3cccc(C(F)(F)F)c3)ncn2)c1)C1CC1
Resp: 110

Req: Next molecule up: COc1ccc(S(=O)(=O)N(CCO)c2ccccc2CN(C)C/C=C/c2ccc(Cl)cc2)cc1
Resp: 109

Req: Next molecule up: Cn1cc(/C=C2\C(=O)Nc3ccc(S(N)(=O)=O)cc32)c2ccccc21
Resp: 77

Req: Next molecule up: CNc1cc2c(Nc3cccc(Br)c3)ncnc2cn1
Resp: 122

Req: Next molecule up: CC#CC(=O)Nc1cc2c(Nc3ccc(F)c(Cl)c3)ncnc2cn1
Resp: 113

Req: Next molecule up: Ic1cccc(CSc2nnc(-c3ccncc3)o2)c1
Resp: 104

Req: Next molecule up: CCN(CC)C(=O)c1ccc(Nc2nc(OCC3CCCCC3)c3nc[nH]c3n2)cc1
Resp: 65

* * *

# ASSAY_SYSTEM: Proto-oncogene tyrosine-protein kinase receptor Ret (Homo sapiens)
# CONDITION_DESCRIPTION: at 10 µM
Please enter y where residual activity is greater than or equal to 90%, and n where it is lower.

Req: Test whether the molecule O=C1Nc2ccc(Br)cc2/C1=C\c1cc2c([nH]1)CCCC2 records residual activity of 90% or higher.
Resp: n

Req: Next molecule up: Ic1cccc(CSc2nnc(-c3ccncc3)o2)c1
Resp: n

Req: Next molecule up: O=C1NC(=O)/C(=C\c2ccc3nccnc3c2)S1
Resp: y

Req: Next molecule up: CO[C@H]1[C@@H](OC)C[C@H](C)[C@@H](OC)C2=CC(=O)C=C(NC(=O)/C(C)=C/C=C/[C@H](OC)[C@@H](OC(N)=O)/C(C)=C/[C@@H]1C)C2=O
Resp: y

Req: Next molecule up: Cc1ccc(NC2=CC(=O)c3sc(C)nc3C2=O)cc1
Resp: y

Req: Next molecule up: Oc1n[nH]c2nnc(-c3c(-c4ccccc4)nn4ccccc34)cc12
Resp: n

Req: Next molecule up: Cc1cccc(-c2[nH]c(C(C)(C)C)nc2-c2ccc3c(c2)OCO3)n1
Resp: y

Req: Next molecule up: CCN(CC)CCCCN1c2ccccc2Oc2ccc(Cl)cc21
Resp: y

Req: Next molecule up: O=c1c2ccccc2[nH]c(=S)n1CCN1CCC(=C(c2ccc(F)cc2)c2ccc(F)cc2)CC1
Resp: y

Req: Next molecule up: COc1ccc(S(=O)(=O)N(CCO)c2ccccc2CN(C)C/C=C/c2ccc(Cl)cc2)cc1
Resp: n

Req: Next molecule up: NC(=O)c1ccc2[nH]c(-c3ccc(Oc4ccc(Cl)cc4)cc3)nc2c1
Resp: n

* * *

# ASSAY_SYSTEM: Ribosomal protein S6 kinase alpha-3 (Homo sapiens) (UniProt P51812)
# Sequence (P51812 whole entry): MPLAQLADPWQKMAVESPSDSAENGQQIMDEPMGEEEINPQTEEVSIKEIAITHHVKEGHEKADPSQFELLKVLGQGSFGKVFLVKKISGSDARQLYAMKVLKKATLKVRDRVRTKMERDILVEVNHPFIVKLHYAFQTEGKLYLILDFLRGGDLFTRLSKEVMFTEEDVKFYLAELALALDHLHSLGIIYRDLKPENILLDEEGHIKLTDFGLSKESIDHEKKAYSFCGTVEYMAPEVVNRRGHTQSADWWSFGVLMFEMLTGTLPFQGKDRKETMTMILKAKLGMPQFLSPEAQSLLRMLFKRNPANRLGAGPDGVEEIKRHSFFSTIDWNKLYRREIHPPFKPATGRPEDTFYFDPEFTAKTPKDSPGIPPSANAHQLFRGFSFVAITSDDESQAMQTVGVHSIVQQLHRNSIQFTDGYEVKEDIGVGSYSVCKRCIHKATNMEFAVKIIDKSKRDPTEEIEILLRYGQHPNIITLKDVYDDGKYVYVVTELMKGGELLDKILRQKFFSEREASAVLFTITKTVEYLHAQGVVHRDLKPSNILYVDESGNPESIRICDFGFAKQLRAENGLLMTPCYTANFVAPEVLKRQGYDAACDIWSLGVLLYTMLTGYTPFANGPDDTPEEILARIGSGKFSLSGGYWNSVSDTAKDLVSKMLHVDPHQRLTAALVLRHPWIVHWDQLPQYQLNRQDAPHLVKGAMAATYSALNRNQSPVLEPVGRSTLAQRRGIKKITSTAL
# CONDITION_DESCRIPTION: at 10 µM
MEASURE: residual activity (%)
Provide only the numeric value, understood in %.

Req: Need residual activity, item c1ccc(-c2n[nH]cc2-c2ccnc3ccccc23)nc1
Resp: 62

Req: Next molecule up: Cc1ccc(S(=O)(=O)/C=C/C#N)cc1
Resp: 120

Req: Next molecule up: NC(=O)c1ccc2[nH]c(-c3ccc(Oc4ccc(Cl)cc4)cc3)nc2c1
Resp: 11

Req: Next molecule up: O=C1NC(=O)c2c1c1c3ccccc3[nH]c1c1[nH]c3cc(Br)ccc3c21
Resp: 43

Req: Next molecule up: c1ccc2c(-c3ccncc3)c[nH]c2c1
Resp: 43

* * *

# ASSAY_SYSTEM: Serine/threonine-protein kinase D2 (Homo sapiens)
# CONDITION_DESCRIPTION: at 1 µM
MEASURE: residual activity (%)
Provide only the numeric value, understood in %.

Req: Need residual activity, item Cc1nc(-c2ccccc2)c(-c2ccncc2)o1
Resp: 103

Req: Next molecule up: O=c1c2ccccc2[nH]c(=S)n1CCN1CCC(=C(c2ccc(F)cc2)c2ccc(F)cc2)CC1
Resp: 100

Req: Next molecule up: CO[C@@H]1[C@H](N(C)C(=O)c2ccccc2)C[C@H]2O[C@]1(C)n1c3ccccc3c3c4c(c5c6ccccc6n2c5c31)C(=O)NC4
Resp: 101

Req: Next molecule up: Cc1nc2cc3nc(-c4cccs4)cnc3cc2n1C
Resp: 96

Req: Next molecule up: Oc1n[nH]c2nnc(-c3c(-c4ccccc4)nn4ccccc34)cc12
Resp: 104

Req: Next molecule up: O=C1Nc2cc(Br)ccc2/C1=C1/Nc2ccccc2/C1=N\O
Resp: 101

Req: Next molecule up: CC(=O)c1ccc(N2CCOCC2)cc1O
Resp: 93

Req: Next molecule up: COc1cc2ncnc(Nc3ccc(Oc4ccccc4)cc3)c2cc1OC
Resp: 106

Req: Next molecule up: Nc1cccc(-c2cc3c(Oc4cccc(O)c4)ncnc3[nH]2)c1
Resp: 99

Req: Next molecule up: O=C(Nc1cccc(Nc2nccc(Nc3cccc(C(F)(F)F)c3)n2)c1)C1CC1
Resp: 99

Req: Next molecule up: Cc1cc(Nc2nc(-c3ccccc3)nc3ccccc23)n[nH]1
Resp: 110

Req: Next molecule up: COc1ccc(OC)c2c(=S)c3ccccc3[nH]c12
Resp: 108

Req: Next molecule up: N#Cc1cnc2cnc(NCc3cccnc3)cc2c1Nc1ccc(F)c(Cl)c1
Resp: 101

Req: Next molecule up: NC(=O)c1ccc2[nH]c(-c3ccc(Oc4ccc(Cl)cc4)cc3)nc2c1
Resp: 99

Req: Next molecule up: Cn1cc(/C=C2\C(=O)Nc3ccc(S(N)(=O)=O)cc32)c2ccccc21
Resp: 103

Req: Next molecule up: Oc1ccc(-c2nc(-c3ccc(F)cc3)c(-c3ccncc3)[nH]2)cc1
Resp: 102

Req: Next molecule up: O=C1Nc2ccccc2/C1=C1/Nc2ccccc2/C1=N\OCCC(O)CO (stereo not given)
Resp: 101

Req: Next molecule up: Oc1c2ccccc2c2c3c(cccc13)N=N2
Resp: 92

Req: Next molecule up: CCN(CC)CCCCN1c2ccccc2Oc2ccc(Cl)cc21
Resp: 97

Req: Next molecule up: COc1cc2ncnc(N3CCN(C(=O)Nc4ccc(Oc5ccccc5)cc4)CC3)c2cc1OC
Resp: 103

Req: Next molecule up: O=Nc1c(-c2c(O)[nH]c3ccccc23)[nH]c2ccccc12
Resp: 109

Req: Next molecule up: COc1ccc(C(=O)Nc2sc3c(c2C(N)=O)CCCC3)cc1OC
Resp: 103

Req: Next molecule up: Nc1n[nH]c2nnc(-c3c(-c4ccccc4)nn4ccccc34)cc12
Resp: 96

Req: Next molecule up: O=C(Nc1cccc(Nc2cc(Nc3cccc(C(F)(F)F)c3)ncn2)c1)C1CC1
Resp: 107

Req: Next molecule up: O=c1cc(-c2cccc3c2Sc2ccccc2S3)oc(N2CCOCC2)c1
Resp: 106
